The reported measurements were obtained from BigSolDB 2.1.

experimental.setup: in methanol, 298.15 K
measured.quantity: solubility (mole fraction)

Consider Cl.O=C(O)c1cn(-c2ccc(F)cc2)c2cc(N3CCNCC3)c(F)cc2c1=O . Its measured solubility (mole fraction) is 0.00262

----------
experimental.setup: in isopropanol, 293.15 K
measured.quantity: solubility (mole fraction)
Number only, please.

Lookup result for Cl.O=C(O)c1cn(-c2ccc(F)cc2)c2cc(N3CCNCC3)c(F)cc2c1=O ; measured solubility (mole fraction): 0.00083

----------
experimental.setup: in n-hexane, 288.15 K
measured.quantity: solubility (mole fraction)
# output: bare number, no unit

Sure, the documented solubility (mole fraction) for Cl.O=C(O)c1cn(-c2ccc(F)cc2)c2cc(N3CCNCC3)c(F)cc2c1=O is 0.00038
